B1: CPEB3 Ribozyme (parent)
chain: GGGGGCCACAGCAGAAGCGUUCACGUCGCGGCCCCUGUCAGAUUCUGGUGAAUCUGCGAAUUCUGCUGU

# Variants of: B1
# protocol.notes: self-cleavage, relative activity (ratio to wild type); higher = more cleavage; co-transcriptional
metric.name: self-cleavage
// no unit string in output, number only

variant.name: A13U A40U
self-cleavage: 0.265

variant.name: G4U G50U
self-cleavage: 0.817

variant.name: G11C U38C
self-cleavage: 0.7

Noted for G3A G25C : its self-cleavage reads 0.0661

Noted for A8G A10G : its self-cleavage reads 0.122

Noted for C34A G65C : its self-cleavage reads 0.485

Noted for G37C A42G : its self-cleavage reads 0.213

Noted for C22G G56A : its self-cleavage reads 0.241

Noted for U36C U62C : its self-cleavage reads 0.528

Noted for A42U U61C : its self-cleavage reads 0.435

Noted for C7G A59C : its self-cleavage reads 0.148
